- Experimental target: KDM4C (Homo sapiens, UniProt Q9H3R0)
- Construct: N-terminal GST-tagged KDM4C^2-372 was purchased from BPS Biosciences; GST (N); purchased BPS Biosciences
- Sequence (Q9H3R0 2-372): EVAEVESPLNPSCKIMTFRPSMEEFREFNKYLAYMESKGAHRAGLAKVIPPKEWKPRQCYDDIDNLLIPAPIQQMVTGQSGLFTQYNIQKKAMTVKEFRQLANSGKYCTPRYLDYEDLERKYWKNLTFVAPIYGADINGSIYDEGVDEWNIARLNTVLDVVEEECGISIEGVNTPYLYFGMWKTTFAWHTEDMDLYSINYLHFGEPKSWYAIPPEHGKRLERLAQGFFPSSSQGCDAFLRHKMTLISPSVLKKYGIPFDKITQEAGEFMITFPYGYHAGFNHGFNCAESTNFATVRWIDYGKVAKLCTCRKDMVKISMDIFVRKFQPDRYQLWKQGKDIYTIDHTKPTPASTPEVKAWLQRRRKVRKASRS
- Method summary: KDM4C Assay (SAMDI mass spectrometry demethylase assay)
- Format: biochemical
- Applied conditions: N-terminal GST-tagged KDM4C 2-372; class symbols; read-out: 4C IC50
pIC50: −log10 of the molar value.
Measurement kind: pIC50

For orientation, consider the following solved cases.
1) Cn1ncc(-c2ccccc2)c1Nc1cnccc1C(=O)O | 6.00 to 7.00
2) N[C@H]1CC[C@@H](n2nc(-c3ccccc3)cc2Nc2cnccc2C(=O)O)CC1 | 6.00 to 7.00

We now examine a further molecule.
Entry "Cc1c(Nc2cnccc2C(=O)O)cnn1C1CCN(CC(F)(F)F)CC1" , pIC50 reported as 6.00 to 7.00

====

- Experimental target: KDM5A (Homo sapiens)
- Construct: C-terminal FLAG-tagged KDM5A^1-1090 was purchased from BPS Biosciences; FLAG (C); purchased BPS Biosciences
- Sequence (P29375 1-1090): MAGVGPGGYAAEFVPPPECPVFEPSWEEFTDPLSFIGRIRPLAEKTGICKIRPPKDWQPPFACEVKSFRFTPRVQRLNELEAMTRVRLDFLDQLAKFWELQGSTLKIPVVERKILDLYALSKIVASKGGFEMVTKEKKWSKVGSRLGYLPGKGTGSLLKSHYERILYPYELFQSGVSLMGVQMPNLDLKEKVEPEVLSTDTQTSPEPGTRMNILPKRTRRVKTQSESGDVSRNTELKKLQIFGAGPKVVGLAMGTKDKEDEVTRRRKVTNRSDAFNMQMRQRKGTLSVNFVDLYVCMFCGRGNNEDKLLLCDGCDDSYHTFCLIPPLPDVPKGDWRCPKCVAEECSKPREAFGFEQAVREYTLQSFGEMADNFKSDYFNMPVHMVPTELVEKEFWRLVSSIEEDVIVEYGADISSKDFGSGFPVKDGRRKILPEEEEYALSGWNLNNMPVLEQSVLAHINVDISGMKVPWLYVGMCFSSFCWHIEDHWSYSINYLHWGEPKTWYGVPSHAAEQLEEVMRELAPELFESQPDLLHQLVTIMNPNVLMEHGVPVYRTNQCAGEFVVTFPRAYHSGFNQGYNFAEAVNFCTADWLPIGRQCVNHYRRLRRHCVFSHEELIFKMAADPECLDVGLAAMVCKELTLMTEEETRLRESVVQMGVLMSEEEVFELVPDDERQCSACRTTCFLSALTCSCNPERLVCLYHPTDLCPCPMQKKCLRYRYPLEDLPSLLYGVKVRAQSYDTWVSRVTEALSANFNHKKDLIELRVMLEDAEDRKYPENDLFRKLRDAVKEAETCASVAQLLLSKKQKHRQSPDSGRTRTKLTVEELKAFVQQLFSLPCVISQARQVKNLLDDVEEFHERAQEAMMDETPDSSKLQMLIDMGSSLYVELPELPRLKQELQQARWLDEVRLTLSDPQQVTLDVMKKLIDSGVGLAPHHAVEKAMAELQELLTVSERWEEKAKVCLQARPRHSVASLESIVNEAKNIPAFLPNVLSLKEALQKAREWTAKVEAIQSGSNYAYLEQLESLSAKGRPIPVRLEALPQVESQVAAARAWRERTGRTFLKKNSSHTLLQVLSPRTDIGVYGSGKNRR
- Method summary: KDM5A Assay (SAMDI mass spectrometry demethylase assay)
- Assay type: biochemical
- Applied conditions: C-terminal FLAG-tagged KDM5A 1-1090; class symbols; read-out: 5A IC50
pIC50: −log10 of the molar value.
Listing: pIC50 of selected compounds

1. Cc1c(-c2ccccc2)nn(CCN2CCC(F)(F)CC2)c1Nc1cnccc1C(=O)O | 4.00 to 5.00

Entry Cc1c(Nc2cnccc2C(=O)O)cnn1C1CCCN(C)CC1 (centres unmarked) , pIC50 reported as 6.00 to 7.00

Entry "O=C(O)c1ccncc1Nc1nn(-c2ccccc2)cc1-c1ccccc1" , pIC50 reported as 6.00 to 7.00

Entry "Cn1cc(Nc2cnccc2C(=O)O)c(-c2ccccc2)n1" , pIC50 reported as 5.00 to 6.00

Entry "Cn1nc(-c2ccc(Cl)cc2)cc1Nc1cnccc1C(=O)O" , pIC50 reported as 7.00 to 9.00
